Listing: growth of selected compounds
System: MDA-MB-435 melanoma
Test: NCI-60 one-dose screen, 48 h (100 = growth as untreated, 0 = no growth, -100 = all killed)
Settings: 10 µM unless noted
Compounds without any hit were thinned out: in the full panel of roughly 83,000, 20% have a hit.
Respond with the bare value in %.

Example results:
COMPOUND	VALUE_UNITS	growth
O=C(O)c1cn(C2CC2)c2cc(N3CCN(C(=O)CSc4nc(NS(=O)(=O)c5ccccc5)cc(=O)[nH]4)CC3)c(F)cc2c1=O	%	90.1
Nn1c(CN2CCN(c3cc4c(cc3F)c(=O)c(C(=O)O)cn4C3CC3)CC2)n[nH]c1=S	%	97.9
CCOC(=O)n1cnc2c(Cl)ncnc21	%	111

compound `CCCCCn1ncc(-c2c(O)c(O)cc3c(O)c(-c4c(C)cc5c(-c6cnn(CCCCC)n6)c(O)c(O)cc5c4O)c(C)cc23)n1` , growth observed: 17.1

###

Tested on: SNB-75 CNS
Experiment: NCI-60 one-dose screen, 48 h
Settings: 10 µM unless noted
This is part of a sample that, as a whole, favours compounds with a hit. Of some 83,000 tested, about 20% had one in any assay. The source made the active and inactive calls. The calls were made as follows: active = growth percent below 10; inactive = the rest.
Entry note: the call must match one of true for active, false for inactive

Example results:
> print(dat)
                           molecular.string  label.class
1  O=C(NCCNc1nccc(-c2c(-c3cccc(O)c3)nc3sccn23)n1)Nc1cccc(C(F)(F)F)c1        false
2     CCCCCCCCCCCC(=O)OCCNC(=O)C[n+]1ccccc1        false
3  CCc1c(C)c2cc(-n3c(-c4ccc(OC)cc4)csc3=N)c(O)c(C)c2oc1=O         true
4  C[C@H]1C=C(C[C@@H](O)CCCCCCCCCC[C@@H](O)[C@H]2CCC(=O)O2)C(=O)O1        false
5  COC(=O)CCCNS(=O)(=O)c1cc(C(=O)Nc2ccc(NC(=O)c3cc(S(=O)(=O)NCCCC(=O)OC)c(O)c(O)c3O)cc2)c(O)c(O)c1O        false
6          COc1ccc2c(c1)nnc1c3cccnc3[nH]c21         true
7  O=C(O)c1ccc2nc(-c3ccc(OCCCCCOc4ccc(-c5nc6ccc(C(=O)O)cc6[nH]5)cc4)cc3)[nH]c2c1        false
8      CN(C)c1ncc(C#Cc2c(F)cccc2F)c2ccccc12        false

# ---- query compound ----
Query string: What call does the record list for `CS(=O)(=O)Nc1cccc(-c2ccc3ncnc(Nc4cncc(Cl)c4)c3c2)c1` ?
Result string: false

###

System: HCC-2998 colon
Assay: NCI-60 one-dose screen, 48 h
Conditions: 10 µM unless noted
This is part of a sample that, as a whole, favours compounds with a hit. Of some 83,000 tested, about 20% had one in any assay. Calls of active or inactive are those of the source. The calls were made as follows: active = growth percent below 10; inactive = the rest.
Entry note: the call must match one of active, inactive

MOLECULE	LABEL_CLASS
CNCCCOc1c(Br)cc(CCNC(=O)/C(Cc2cc(Br)c(OC)c(Br)c2)=N/O)cc1Br	active

# ---- query molecule ----
Query string: What call does the record list for `C#C[C@@]1(O)[C@@H](CO)O[C@@H](n2cc(Br)c3c(Cl)ccnc32)[C@@H]1O` ?
Result string: inactive

###

Tested on: T-47D breast
Test: NCI-60 one-dose screen, 48 h (100 = growth as untreated, 0 = no growth, -100 = all killed)
Settings: 10 µM unless noted
About 83,000 compounds went through this panel and 20% of them were active in at least one assay; those are over-represented in the sample as a whole.
Field: label. Allowed values: Fulfilled (growth < 70%) or Not fulfilled (growth >= 70%).

> print(dat)
                                   compound    label.class
1          O=C(NC(=S)Nc1ccc(Cl)cc1)c1ccccc1  Not fulfilled
2  C#CCn1c(-c2cc(OC)c(OC)cc2Br)nc(-c2ccccc2)c1-c1ccccc1      Fulfilled
3  O=C(Nc1ccc(-n2cc(-c3ccncc3)c(-c3ccc(O)c(Cl)c3)n2)cc1)c1ccc(Cl)c(C(F)(F)F)c1      Fulfilled

# ---- query compound ----
Query string: Determine whether this compound shows growth lower than 70% (ties excluded): CCOC(=O)C(C)(CSSCC(C)(NC(=O)c1ccc2ccccc2c1)C(=O)OCC)NC(=O)c1ccc2ccccc2c1 (stereo not given)
Result string: Not fulfilled

###

Test system: MOLT-4 leukemia
Test: NCI-60 one-dose screen, 48 h (100 = growth as untreated, 0 = no growth, -100 = all killed)
Conditions: 10 µM unless noted
Description: Growth inhibition of the MOLT-4 human tumor cell line is measured as a screen for anti-cancer activity. Cells are grown in 96 well plates and exposed to the test compound for 48 hours. Compounds are tested at a single concentration, which is 10^-5 M for most compounds. The reported endpoint is percent growth (GI% or GIPRCNT), where numbers from 0 - 100% represent growth inhibition, and numbers from -100% - 0 represent cell death. For example, a value of 40 represents 60% growth inhibition. […]
This is part of a sample that, as a whole, favours compounds with a hit. Of some 83,000 tested, about 20% had one in any assay.
QUANTITY_MEASURED: growth (%)
Respond with the bare value in %.

MOLECULAR_STRING	VALUE_UNITS	growth
O=c1[nH]ccc2nc(N3CCC(O)CC3)nc(Nc3cccc(C(F)(F)F)c3)c12	%	1.19
O=c1c2ccccc2sc2c(NCCN3CCOCC3)nc3ccccc3c12	%	37
C#CC(=O)/C=C/CCCCCCC#CC(=O)CCC(=O)C#CCCCCCC/C=C/C(=O)C#C	%	-32.2
N#Cc1c(N)nc(Cl)c(C#N)c1C(=O)c1ccccc1	%	19.7
Cc1nc(N)nc(SCc2ccccc2)c1Br	%	63.7
Cc1ccc(=O)n(-c2ccc(Br)cc2F)c1	%	108

compound `O=C(Nc1ccccc1F)Nc1ccccc1Cl` , growth observed: 69.3

compound `CC(=O)N[C@@H](CNC(=O)c1cc(NC(=O)c2cc(NC(=O)c3cc(NC(=O)c4nccn4C)cn3C)cn2C)cn1C)CC(=O)Nc1cn(C)c(C(=O)Nc2cc(C(=O)Nc3cc(C(=O)Nc4cc(C(=O)NCCCN(C)CCCNC(=O)c5cccc(C(=O)O)c5)n(C)c4)n(C)c3)n(C)c2)n1` , growth observed: 120

compound `ClC1c2ccccc2CCc2ccccc21` , growth observed: 107

###

Listing: growth of selected compounds
Tested on: SK-OV-3 ovarian
Test: NCI-60 one-dose screen, 48 h (100 = growth as untreated, 0 = no growth, -100 = all killed)
Conditions: 10 µM unless noted
The panel holds about 83,000 compounds, 20% with a hit somewhere; the sample as a whole holds those more often. Activity calls are given as the source filed them. The calls were made as follows: active = growth percent below 10; inactive = the rest.

> print(dat)
                           molecular.string        tested.on  quantity.measured   endpoint.result
1  O=C(Nc1cccc(-n2ccc3c(NC(=O)c4ccccc4)nccc32)c1)Nc1cc(C(F)(F)F)cc(C(F)(F)F)c1  SK-OV-3 ovarian             growth  13.5% (inactive)

compound `COc1ccc(/C=C/C(=O)/C=C(/C=C/c2ccc(OC)c(OC)c2OC)OB(F)F)c(OC)c1OC` , growth observed: 76.8% (inactive)

compound `CCc1c2cc(Cl)ccc2n2cc(Cc3ccccc3)[nH]c(=O)c12` , growth observed: 103% (inactive)

compound `O=c1[nH]ccc2nc(N3CCC(O)CC3)nc(Nc3cccc(C(F)(F)F)c3)c12` , growth observed: 32.3% (inactive)

###

System: SW-620 colon
Experiment: NCI-60 one-dose screen, 48 h (100 = growth as untreated, 0 = no growth, -100 = all killed)
Conditions: 10 µM unless noted
This is part of a sample that, as a whole, favours compounds with a hit. Of some 83,000 tested, about 20% had one in any assay.
Field: label. Allowed values: fulfilled (growth < 70%) or not fulfilled (growth >= 70%).

> print(dat)
                                   compound     tested.on    label.class
1  COc1ccc2c(c1)/C(=C/c1c(-c3cc(OC)c(OC)c(OC)c3Br)nc3sccn13)C(=O)N2  SW-620 colon  not fulfilled
2  C=C1c2c(Cl)ccc(O)c2C(O)=C2C(=O)[C@]3(O)C(O)=C(C(N)=O)C(=O)[C@@H](N(C)C)[C@@H]3[C@@H](O)[C@H]12  SW-620 colon      fulfilled
3          CC(=O)Nc1ccc(OC(=O)c2ccccc2O)cc1  SW-620 colon  not fulfilled

Query string: Determine whether this compound shows growth lower than 70% (ties excluded): NC(CSC(c1ccccc1)(c1ccccc1)c1ccc(F)cc1)C(=O)O (stereo not given)
Result string: fulfilled

Query string: Determine whether this compound shows growth lower than 70% (ties excluded): `NC(=NCCCOc1ccc(F)cc1)Nc1ccc(Cl)c(Cl)c1`
Result string: fulfilled

Query string: Determine whether this compound shows growth lower than 70% (ties excluded): `CN(C)c1ncc(C#Cc2c(F)cccc2F)c2ccccc12`
Result string: not fulfilled

Query string: Determine whether this compound shows growth lower than 70% (ties excluded): `CC1(C)N=C(N)N=C(N)N1c1ccc(F)c(C(F)(F)F)c1`
Result string: fulfilled

Query string: Determine whether this compound shows growth lower than 70% (ties excluded): `NN=C(c1ccc(Cl)cc1)c1ccc(Cl)cc1`
Result string: not fulfilled

Query string: Determine whether this compound shows growth lower than 70% (ties excluded): `CS(=O)(=O)OCC(COS(C)(=O)=O)C(c1ccccc1)c1ccccc1`
Result string: not fulfilled

Value source: PubChem BioAssay (NCI)
